Target: T1, CMV gp116 epitope AD2 site peptide SHRANETIYNTTLKYGDTTGTNTTK (CMV (human cytomegalovirus), not fully specified)
T1 construct: Synthetic polypeptide corresponding to the AD2 site of gp116 (glycoprotein B); A biotinylated form was used to select B cells; also called CMV gp116 AD2 peptide
T1 peptide: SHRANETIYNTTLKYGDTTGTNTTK
Assay: kinetic affinity measurement, method not stated; antigen taken as CMV gp116 AD2 peptide
Give kon for every item shown.
Answers are plain numbers, in M⁻¹ s⁻¹.

Record request: kon value, item 2F10 human anti-CMV antibody (antibody, V domains shown, Recombinant human IgG, gamma heavy and kappa light chain, made by transient transfection of 293 cells; also called mAb A-2F10) VH: QVHLVESGGGVVQPGRALRLSCAATGFTFSNHGIHWVRQAPGKGLEWLAVISSDGDDDRYADSVKGRFSVSRDNSKNTVHLQMNGLRPDDTAIYFCARDGRCGEPKCYSGLPDYWGRGTLVTVSS VL: EIVLTQSPATLSLSPGDRATLSCRASQSVGGYLAWYQQKPGQAPRLLLYDASNRATGIPARFSGSGSGTDFTLTISSLEPEDFALYYCLQRNTWPPLTFGGGTKVEIKR 562000

For the binder shown here, 5P9 human anti-CMV antibody (antibody, V domains shown, Recombinant human IgG, gamma heavy and kappa light chain; also called mAb E-5P9) VH: QVQLVESGGGVIQPGRSLRLSCVASKFIFSNHGIHWVRQAPGKGLEWVAVISKDGTNAHYADSVRGRFSISRDNSKDTVFLEMRSLRPEDTAVYYCAREGRCIEEKCYSGQIDYWGQGSLVTVSS VL: EILLTQSPATLSLSPGERATLSCRASQSVGRYMAWYQQRPGQAPRLLIYDASIRATGIPARFSGSGSGTDFTLTISSLQTEDFAIYYCQQRSSWPPLTFGGGTKVEIKR , give the reported kon. 245000

Name the reported kon value associated with the binder 4P12 human anti-CMV antibody (antibody, V domains shown, Recombinant human IgG, gamma heavy and kappa light chain; also called mAb D-4P12) VH: QVQLVESGGGVIQPGRSLRLSCVASKFIFSNHGIHWVRQAPGKGLEWVAVISKDGTNAHYADSVRGRFSISRDNSKDTVFLEMRSLRPEDTAVYYCAREGRCIEENCYSGQIDYWGQGSLVTVSS VL: EILLTQSPATLSLSPGERATLSCRASQSVGRYMAWYQQRPGQAPRLLIYDASIRATGIPARFSGSGSGTDFTLTISSLQPEDFAIYYCQQRSSWPPLTFGGGTKVEIKR 175000

Now examine the next entry.
// returns reported kon for input 2N9 human anti-CMV antibody (antibody, V domains shown, Recombinant human IgG, gamma heavy and kappa light chain; (MDMR); If the listing entry has two more residues, the range shifts by 2; also called TCN-202; mAb C-2N9) VH: QVQLVESGGGVVQPGRSLRLSCAASGFTFSSNGIHWVRQAPGKGLDWVAVISSDANDKQYADSVKGRFTISRDNSKNMVYLQMNSLRVEDTAVYFCARDGTCSGGNCYSGLIDYWGRGILVTVSS VL: EIVLTQSPATLSLSPGERATLSCRASQSVGGYLAWYQQKPGQAPRLLIYDASIRATGIPARFSGSGSGTDFTLTISSLEPEDFAVYYCHQRSNWPPLTFGGGTKVDIKR 2.6e+06
